Recorded pIC50 for the following compounds
Test system: Human colon carcinoma cells HCT-116
Test: Cytotoxic activity on culture of human colon carcinoma cells HCT-116 (Alamar Blue)
Type: cell-based
Conditions: Homo sapiens, HCT-116, 72 h, HCT-116 cells, 72 hours after addition of compounds, Alamar Blue viability
# pIC50 is unitless: minus log10 of the molar concentration; print number only

compound	pIC50
O=C(CCCC1CCN(C(=O)Nc2ccc(-c3ccccn3)cc2)CC1)NO [Ex 151]	7.00
N[C@@H](CC(=O)N1CCC(CCCC(=O)NO)CC1)c1cccc(F)c1 [Ex 175]	6.22
N[C@@H](CC(=O)N1CCC(CCCC(=O)NO)CC1)Cc1ccc2ccccc2c1 [Ex 144]	6.62
CCCOc1ccc(NC(=O)N2CCC(CCCC(=O)NO)CC2)cc1 [Ex 137]	6.82
Nc1ccccc1NC(=O)N1CCC(CCCC(=O)NO)CC1 [Ex 73]	6.08

Entry O=C(CCCC1CCN(C(=O)NCc2ccc(Cl)cc2)CC1)NO [Ex 34] , pIC50 reported as 6.48

# pIC50 of O=C(CCCC1CCN(C(=O)NCc2cccc(Cl)c2)CC1)NO [Ex 39] = 6.09

* * *

System: Human colon carcinoma cells HCT-116
Test: Cytotoxic activity on culture of human colon carcinoma cells HCT-116 (Alamar Blue)
Format: cell-based
Details: Homo sapiens, HCT-116, 72 h, HCT-116 cells, 72 hours after addition of compounds, Alamar Blue viability
Below, each entry is listed with its recorded pIC50.
Note on pIC50: it is the negative log10 of concentration, concentration in mol/L.

compound	experimental target	measure	observed
N[C@@H](CC(=O)N1CCC(CCCC(=O)NO)CC1)C(=O)NCc1ccccc1	Human colon carcinoma cells HCT-116	pIC50	6.05
Cc1cc(C)n(-c2ccc(NC(=O)N3CCC(CCCC(=O)NO)CC3)cc2)n1	Human colon carcinoma cells HCT-116	pIC50	6.30
O=C(CCCC1CCCN(C(=O)Nc2ccccc2)C1)NO (stereo not drawn)	Human colon carcinoma cells HCT-116	pIC50	6.22
N[C@H](CC(=O)N1CCC(CCCC(=O)NO)CC1)c1cccc2ccccc12	Human colon carcinoma cells HCT-116	pIC50	6.70
Nc1ccc2cc(NC(=O)N3CCC(CCCC(=O)NO)CC3)ccc2c1	Human colon carcinoma cells HCT-116	pIC50	6.33
O=C(CCCC1CCN(C(=O)Nc2cccc3c2CCCC3)CC1)NO	Human colon carcinoma cells HCT-116	pIC50	6.40
O=C(CCCC1CCN(C(=O)Nc2ccc3ccccc3c2)CC1)NO	Human colon carcinoma cells HCT-116	pIC50	6.08
N[C@H](Cc1cccc2ccccc12)C(=O)N1CCC(CCCC(=O)NO)CC1	Human colon carcinoma cells HCT-116	pIC50	6.30

Now, please, on to the next compound.
// field: pIC50; key: CN(C)[C@@H](CCc1ccccc1)C(=O)N1CCC(CCCC(=O)NO)CC1 ; value = 6.70

* * *

Tested on: Human colon carcinoma cells HCT-116
Experiment: Cytotoxic activity on culture of human colon carcinoma cells HCT-116 (Alamar Blue)
Type: cell-based
Details: Homo sapiens, HCT-116, 72 h, HCT-116 cells, 72 hours after addition of compounds, Alamar Blue viability
measure: log10 of IC50 (log10 of the value in nM)
Annotation: log10 of IC50, nM basis.

molecule	log10 of IC50
O=C(CCCC1CCN(C(=O)[C@H](CO)NC(=O)c2cc3ccccc3s2)CC1)NO [Ex 101]	2.71
N[C@@H](CC(=O)N1CCC(CCCC(=O)NO)CC1)c1cccc2ccccc12 [Ex 158]	2.95

// recorded log10 of IC50 for O=C(CCCC1CCN(C(=O)NCc2ccccc2)CC1)NO [Ex 7] : 2.48

Notebook: O=C(CCCC1CCN(C(=O)Nc2ccc(-c3cccc(F)c3)cc2)CC1)NO [Ex 165] , log10 of IC50 read as 2.85

The recorded log10 of IC50 for N[C@@H](CCc1ccccc1)C(=O)N1CCC(CCCC(=O)NO)CC1 [Ex 82] is 2.72
